molecular target: PI3-kinase p110-delta/p85-alpha (Homo sapiens) (UniProt P27986+O00329); experiment: Inhibition of PI3K p110delta/p85alpha (unknown origin) at 100 nM using lipid substrate after 40 mins by kinase-glo luminescence assay relative to control; format: protein-complex assay
Overview of recorded inhibition for various molecules

- molecule: "COc1ccc(-c2ccc3ncnc(Nc4cccc(C(=O)N5CCN(C)CC5)c4)c3c2)cc1C(N)=O"
  inhibition [%]: 33
- molecule: "COc1c(C(N)=O)cc(-c2ccc3ncnc(Nc4cccc(C(=O)N5CCOCC5)c4)c3c2)cc1[N+](=O)[O-]"
  inhibition [%]: 49
- molecule: "CC[C@H](Nc1ncnc2[nH]cnc12)c1nc2cccc(F)c2c(=O)n1-c1ccccc1"
  inhibition [%]: 96
- molecule: "COc1ccc(-c2ccc3ncnc(Nc4cccc(C(=O)N5CCOCC5)c4)c3c2)cc1C(N)=O"
  inhibition [%]: 21
- molecule: "COc1ccc(-c2ccc3ncnc(Nc4ccc(C(=O)N5CCOCC5)cc4)c3c2)cn1"
  inhibition [%]: 61
- molecule: "COc1cc(C(N)=O)cc(-c2ccc3ncnc(Nc4cccc(C(=O)N5CCOCC5)c4)c3c2)c1"
  inhibition [%]: 61
- molecule: "COc1ccc(-c2ccc3ncnc(Nc4ccc(C(=O)N5CCOCC5)cc4)c3c2)cc1C(N)=O"
  inhibition [%]: 0
- molecule: "COc1ccc(-c2ccc3ncnc(Nc4cccc(C(=O)N5CCOCC5)c4)c3c2)cn1"
  inhibition [%]: 87
- molecule: "COc1ccc(-c2ccc3nccc(Nc4cccc(C(=O)N5CCN(C)CC5)c4)c3c2)cc1C(N)=O"
  inhibition [%]: 0
- molecule: "COc1ccc(-c2ccc3ncnc(Nc4ccc(C(=O)N5CCN(C)CC5)cc4)c3c2)cc1C(N)=O"
  inhibition [%]: 12
- molecule: "NC(=O)c1cc(-c2ccc3ncnc(Nc4cccc(C(=O)N5CCOCC5)c4)c3c2)cc(C(F)(F)F)c1"
  inhibition [%]: 91
- molecule: "COc1ncc(-c2ccc3ncnc(Nc4cccc(C(=O)N5CCOCC5)c4)c3c2)cc1C#N"
  inhibition [%]: 93
- molecule: "COc1ccc(-c2ccc3nccc(Nc4cccc(C(=O)N5CCN(C)CC5)c4)c3c2)cn1"
  inhibition [%]: 23
- molecule: "COc1ccc(-c2ccc3ncnc(Nc4cccc(C(=O)N5CCN(C)CC5)c4)c3c2)cn1"
  inhibition [%]: 71
